- SYSTEM TESTED: TYK2 (Homo sapiens, UniProt P29597)
- Construct: 5 μl of catalytic domain recombinant Kinase enzyme+Tyr peptide substrate (Invitrogen, Calif.)
- Sequence (P29597 897-1176 limits assumed): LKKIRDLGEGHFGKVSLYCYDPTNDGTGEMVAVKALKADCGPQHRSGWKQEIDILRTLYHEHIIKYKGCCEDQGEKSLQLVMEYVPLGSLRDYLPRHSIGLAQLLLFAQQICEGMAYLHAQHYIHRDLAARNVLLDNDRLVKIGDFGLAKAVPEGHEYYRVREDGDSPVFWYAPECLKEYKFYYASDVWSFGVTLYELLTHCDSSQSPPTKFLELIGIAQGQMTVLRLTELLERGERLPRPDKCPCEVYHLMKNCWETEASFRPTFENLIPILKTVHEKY
- TEST METHOD NOTES: Z'-LYTE kinase assay, TYK2 tyrosine phosphorylation activity
RESULT TYPE: IC50

Before answering, review these 2 worked examples.
1. CC(=O)Nc1cccc(Nc2ncc(C(N)=O)c(N[C@@H]3CCc4ccccc43)n2)c1 1 to 10 nM
2. CCC(=O)Nc1cccc(Nc2ncc(C(N)=O)c(NCc3ccccc3)n2)c1 1 to 10 nM

QUERY: Would you kindly share the measured IC50 for CC(=O)Nc1cccc(Nc2cc(NCC3CCC3)c(C(N)=O)cn2)c1 ?
RESULT: 10 to 100 nM

QUERY: Need IC50 of CCn1ccc2c(Nc3nc(Nc4cccc(NC(C)=O)c4)ncc3C(N)=O)cccc21 , thanks.
RESULT: 1 to 10 nM

###

- SYSTEM TESTED: JAK1 (Homo sapiens)
- Construct: 5 μl of catalytic domain recombinant Kinase enzyme+Tyr peptide substrate (Invitrogen, Calif.)
- Sequence (P23458 875-1153 limits assumed): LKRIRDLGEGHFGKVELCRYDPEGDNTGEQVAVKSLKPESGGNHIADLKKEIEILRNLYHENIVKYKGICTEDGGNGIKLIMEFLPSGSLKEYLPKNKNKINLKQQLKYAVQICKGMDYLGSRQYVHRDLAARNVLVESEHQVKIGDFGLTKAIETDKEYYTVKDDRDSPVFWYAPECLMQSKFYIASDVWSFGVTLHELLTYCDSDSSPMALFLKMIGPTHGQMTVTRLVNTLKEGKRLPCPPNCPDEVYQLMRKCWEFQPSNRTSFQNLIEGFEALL
- TEST METHOD NOTES: Z'-LYTE kinase assay, JAK1 tyrosine phosphorylation activity
- STUDY CONDITIONS: read-out: JAK 1 IC50
pIC50: −log10 of the molar value.
Entries and their measured pIC50 follow.

// below: answered compounds
COMPOUND	SYSTEM TESTED	pIC50
COCC(=O)Nc1cccc(Nc2ncc(C(N)=O)c(NC3CCC3)n2)c1 [Example 55]	JAK1 (Homo sapiens)	7.00 to 8.00
CCC(=O)Nc1cccc(Nc2ncc(C(N)=O)c(NCc3ccccc3)n2)c1 [Example 28]	JAK1 (Homo sapiens)	7.00 to 8.00
CNC(=O)Nc1cccc(Nc2ncc(C(N)=O)c(NCc3ccccc3)n2)c1 [Example 39]	JAK1 (Homo sapiens)	7.00 to 8.00

QUERY: Fill in the blank: the reported pIC50 of CC(=O)Nc1cccc(Nc2ncc(C(N)=O)c(N[C@H]3CCc4ccccc43)n2)c1 [Example 96] is ____.
RESULT: 7.00 to 8.00

###

- SYSTEM TESTED: TYK2 (Homo sapiens, UniProt P29597)
- Construct: 5 μl of catalytic domain recombinant Kinase enzyme+Tyr peptide substrate (Invitrogen, Calif.)
- TEST METHOD NOTES: Z'-LYTE kinase assay, TYK2 tyrosine phosphorylation activity
pIC50: −log10 of the molar value.
RESULT TYPE: pIC50

Worked examples follow.
1) COCC(=O)N(C)c1cccc(Nc2ncc(C(N)=O)c(NCC3CC3)n2)c1 7.00 to 8.00
2) CC(=O)Nc1cccc(Nc2cc(NCc3cccc(F)c3F)c(C(N)=O)cn2)c1 6.00 to 7.00
3) CC[C@H](C)[C@@H](CO)Nc1nc(Nc2cccc(NC(C)=O)c2)ncc1C(N)=O 8.00 to 9.00
4) CC(C)[C@@H](C)Nc1nc(Nc2ccc(Cl)c(NC(=O)N3CCCC3)c2)ncc1C(N)=O 8.00 to 9.00
5) CC(=O)Nc1cccc(Nc2cc(NCC3CC3)c(C(N)=O)cn2)c1 6.00 to 7.00

QUERY: Find the recorded pIC50 belonging to COC(=O)Nc1cccc(Nc2ncc(C(N)=O)c(NCc3ccccc3)n2)c1 and report it.
RESULT: 8.00 to 9.00

QUERY: Which pIC50 is reported for this compound? CNC(=O)Nc1cc(Nc2ncc(C(N)=O)c(N[C@H](C)c3ccccc3)n2)ccc1Cl
RESULT: 6.00 to 7.00

QUERY: What value of pIC50 has been recorded for this entry: CC(C)OC(=O)Nc1cccc(Nc2ncc(C(N)=O)c(NCc3ccccc3)n2)c1
RESULT: 7.00 to 8.00
